Data origin, for the record: ChEMBL document CHEMBL1144399

biological target: Melanocortin receptor 3 (Homo sapiens); experiment: Effective concentration against human melanocortin receptor-3 expressed in 293 HEK cells
Sequence (P41968 whole entry): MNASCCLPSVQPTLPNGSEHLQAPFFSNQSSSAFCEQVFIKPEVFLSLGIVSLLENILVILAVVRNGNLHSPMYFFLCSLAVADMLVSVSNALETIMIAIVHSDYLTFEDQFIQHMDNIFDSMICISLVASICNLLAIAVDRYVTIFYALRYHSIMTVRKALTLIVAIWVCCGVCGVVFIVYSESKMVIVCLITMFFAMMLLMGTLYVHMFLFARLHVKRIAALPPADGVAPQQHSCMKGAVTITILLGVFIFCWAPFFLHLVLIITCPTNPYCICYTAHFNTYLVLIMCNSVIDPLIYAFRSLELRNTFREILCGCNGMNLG
pEC50: −log10 of the molar value.
Measurement Type: pEC50

Worked set:
{"Molecule": "CCCC[C@H](NC(C)=O)C(=O)NCC(=O)N[C@@H](CCCCN)C(=O)N[C@H](Cc1ccccc1)C(=O)N[C@@H](CCCN=C(N)N)C(=O)N(CCc1c[nH]c2ccccc12)CC(=O)NCC(N)=O", "pEC50": 5.70}
{"Molecule": "CCCC[C@H](NC(C)=O)C(=O)NCC(=O)N[C@@H](CCCCN)C(=O)N[C@H](Cc1ccccc1)C(=O)N[C@@H](CCCN=C(N)N)C(=O)N(CC(=O)NCC(N)=O)Cc1c[nH]c2ccccc12", "pEC50": 6.50}
{"Molecule": "CCCC[C@H](NC(C)=O)C(=O)NCC(=O)N(CCCCN)CC(=O)NC(Cc1ccccc1)C(=O)N(CCCNC(=N)N)CC(=O)N(CC(=O)NCC(N)=O)Cc1c[nH]c2ccccc12 (single isomer, unassigned)", "pEC50": 5.20}

[P] CCCCN(CC(=O)NCC(=O)N[C@@H](CCCCN)C(=O)N[C@H](Cc1ccccc1)C(=O)N[C@@H](CCCNC(=N)N)C(=O)N(CCc1c[nH]c2ccccc12)CC(=O)NCC(N)=O)C(C)=O
[Q] CCCC[C@H](NC(C)=O)C(=O)NCC(=O)N[C@@H](CCCCN)C(=O)N[C@H](Cc1ccccc1)C(=O)N(CCCCNC(=N)N)CC(=O)N(CCc1c[nH]c2ccccc12)CC(=O)NCC(N)=O
[R] CCCC[C@H](NC(C)=O)C(=O)NCC(=O)N(CCCCN)CC(=O)N[C@H](Cc1ccccc1)C(=O)N[C@@H](CCCN=C(N)N)C(=O)N(CC(=O)NCC(N)=O)Cc1c[nH]c2ccccc12
hey, can you rank those molecules up there by pEC50? biggest number first please The labels, placed in the requested order, form the answer.
Q, P, R

[I] CCCC[C@H](NC(C)=O)C(=O)NCC(=O)N(CCCCN)CC(=O)NC(Cc1ccccc1)C(=O)N(CCCNC(=N)N)CC(=O)N(CCc1c[nH]c2ccccc12)CC(=O)NCC(N)=O (single isomer, unassigned)
[II] CCCCN(CC(=O)NCC(=O)N[C@@H](CCCCN)C(=O)N[C@H](Cc1ccccc1)C(=O)N[C@@H](CCCNC(=N)N)C(=O)N(CC(=O)NCC(N)=O)Cc1c[nH]c2ccccc12)C(C)=O
[III] CCCC[C@H](NC(C)=O)C(=O)NCC(=O)N[C@@H](CCCCN)C(=O)N[C@H](Cc1ccccc1)C(=O)N(CCCNC(=N)N)CC(=O)N(CCc1c[nH]c2ccccc12)CC(=O)NCC(N)=O
Give the ascending ranking of the items by reported pEC50. Dear reader, please state the labels in the requested order.
I, II, III
(I: 5.40, II: 6.10, III: 6.80)

[I] CCCC[C@H](NC(C)=O)C(=O)NCC(=O)N[C@@H](CCCCN)C(=O)N[C@H](Cc1ccccc1)C(=O)N(CCCNC(=N)N)CC(=O)N[C@@H](Cc1c[nH]c2ccccc12)C(=O)NCC(N)=O
[II] CCCC[C@H](NC(C)=O)C(=O)NCC(=O)N[C@@H](CCCCN)C(=O)N[C@H](Cc1ccccc1)C(=O)N(CCCNC(=N)N)CC(=O)N(CC(=O)NCC(N)=O)Cc1c[nH]c2ccccc12
Which item exceeds the other in pEC50, I or II ? Please indicate the selected item by its label.
II
(II: 6.20, I: 5.40)

----------
molecular target: Melanocortin receptor 4 (Homo sapiens, UniProt P32245); assay: Effective concentration against human melanocortin receptor-4 expressed in 293 HEK cells
Sequence (P32245 whole entry): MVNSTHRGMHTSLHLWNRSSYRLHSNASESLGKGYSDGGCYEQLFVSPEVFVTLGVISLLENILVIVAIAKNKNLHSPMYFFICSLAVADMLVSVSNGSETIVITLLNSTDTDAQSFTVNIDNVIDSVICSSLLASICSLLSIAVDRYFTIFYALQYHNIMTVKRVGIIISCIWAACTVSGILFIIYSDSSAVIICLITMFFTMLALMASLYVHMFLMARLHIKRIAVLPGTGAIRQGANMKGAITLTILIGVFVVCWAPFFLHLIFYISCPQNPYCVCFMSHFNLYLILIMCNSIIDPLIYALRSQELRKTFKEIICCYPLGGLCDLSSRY
pEC50: −log10 of the molar value. Where a SMILES comes first, the peptide text is derived from it. [ ]: non-standard residue; d: D form. Gly(N-(CH2)3-guanidino) = N=C(N)NCCCNCC(=O)O; NBuGly = CCCCNCC(=O)O; Nlys = NCCCCNCC(=O)O
Measurement Type: pEC50

[P] CCCC[C@H](NC(C)=O)C(=O)NCC(=O)N[C@@H](CCCCN)C(=O)N[C@H](Cc1ccccc1)C(=O)N(CCCNC(=N)N)CC(=O)N(CCc1c[nH]c2ccccc12)CC(=O)NCC(N)=O
[Q] CCCCN(CC(=O)NCC(=O)N(CCCCN)CC(=O)N[C@@H](Cc1ccccc1)C(=O)N(CCCN=C(N)N)CC(=O)N[C@@H](Cc1c[nH]c2ccccc12)C(=O)NCC(N)=O)C(C)=O (Ac-[NBuGly]G[Nlys]F[Gly(N-(CH2)3-guanidino)]WG-NH2)
[R] CCCCN(CC(=O)NCC(=O)N(CCCCN)CC(=O)N[C@H](Cc1ccccc1)C(=O)N[C@@H](CCCN=C(N)N)C(=O)N(CCc1c[nH]c2ccccc12)CC(=O)NCC(N)=O)C(C)=O
Please put the 3 compounds above in a list ordered by falling pEC50. # the answer lists labels in the order requested
P, Q, R
(P: 7.10, Q: 5.50, R: 5.20)

----------
target: Melanocortin receptor 4 (Homo sapiens); test: Displacement of [125I]NDP-MSH from human melanocortin receptor-4 expressed in 293 HEK cells
Measurement Type: IC50 (µM)

{"Molecule": "CCCC[C@H](NC(C)=O)C(=O)NCC(=O)N[C@@H](CCCCN)C(=O)N[C@H](Cc1ccccc1)C(=O)N[C@@H](CCCNC(=N)N)C(=O)N[C@@H](Cc1c[nH]c2ccccc12)C(=O)NCC(N)=O", "Result Unit": "µM", "IC50": 0.00251}
{"Molecule": "CCCCN(CC(=O)NCC(=O)N(CCCCN)CC(=O)N[C@H](Cc1ccccc1)C(=O)N[C@@H](CCCNC(=N)N)C(=O)N[C@@H](Cc1c[nH]c2ccccc12)C(=O)NCC(N)=O)C(C)=O", "Result Unit": "µM", "IC50": 0.0631}

[I] CCCC[C@H](NC(C)=O)C(=O)NCC(=O)N[C@@H](CCCCN)C(=O)N[C@H](Cc1ccccc1)C(=O)N(CCCCN=C(N)N)CC(=O)N[C@@H](Cc1c[nH]c2ccccc12)C(=O)NCC(N)=O
[II] CCCC[C@H](NC(C)=O)C(=O)NCC(=O)N[C@@H](CCCCN)C(=O)N[C@H](Cc1ccccc1)C(=O)N[C@@H](CCCN=C(N)N)C(=O)N(CC(=O)NCC(N)=O)Cc1c[nH]c2ccccc12
[III] CCCCN(CC(=O)NCC(=O)N[C@@H](CCCCN)C(=O)N[C@H](Cc1ccccc1)C(=O)N[C@@H](CCCN=C(N)N)C(=O)N[C@@H](Cc1c[nH]c2ccccc12)C(=O)NCC(N)=O)C(C)=O
Please rank these molecules by IC50 in descending order. Reply format: the labels, ordered as requested.
II, I, III
(II: 0.251 µM, I: 0.158 µM, III: 0.02 µM)

----------
molecular target: Melanocortin receptor 4 (Homo sapiens, UniProt P32245); test: Effective concentration against human melanocortin receptor-4 expressed in 293 HEK cells
Where a SMILES comes first, the peptide text is derived from it. [ ]: non-standard residue; d: D form. Nle = CCCC[C@H](N)C(=O)O; Nphe = O=C(O)CNCc1ccccc1
Measurement Type: EC50 (nM)

Some solved cases for reference:
{"Molecule": "CCCC[C@H](NC(C)=O)C(=O)NCC(=O)N(CCCCN)CC(=O)NC(Cc1ccccc1)C(=O)N(CCCNC(=N)N)CC(=O)N(CCc1c[nH]c2ccccc12)CC(=O)NCC(N)=O (single isomer, unassigned)", "Result Unit": "nM", "EC50": 398}
{"Molecule": "CCCCN(CC(=O)NCC(=O)N(CCCCN)CC(=O)N[C@H](Cc1ccccc1)C(=O)N(CCCN=C(N)N)CC(=O)N(CC(=O)NCC(N)=O)Cc1c[nH]c2ccccc12)C(C)=O", "Result Unit": "nM", "EC50": 5010}
{"Molecule": "CCCCN(CC(=O)NCC(=O)N[C@@H](CCCCN)C(=O)N[C@H](Cc1ccccc1)C(=O)N[C@@H](CCCN=C(N)N)C(=O)N[C@@H](Cc1c[nH]c2ccccc12)C(=O)NCC(N)=O)C(C)=O", "Result Unit": "nM", "EC50": 2.51}

[P] CCCCN(CC(=O)NCC(=O)N[C@@H](CCCCN)C(=O)N[C@H](Cc1ccccc1)C(=O)N[C@@H](CCCNC(=N)N)C(=O)N(CC(=O)NCC(N)=O)Cc1c[nH]c2ccccc12)C(C)=O
[Q] CCCC[C@H](NC(C)=O)C(=O)NCC(=O)N[C@@H](CCCCN)C(=O)N(CC(=O)N[C@@H](CCCN=C(N)N)C(=O)N[C@@H](Cc1c[nH]c2ccccc12)C(=O)NCC(N)=O)Cc1ccccc1 (Ac-[Nle]GK[Nphe]RWG-NH2)
Pick the one with the larger EC50: P vs Q Respond using the label that marks the chosen record.
Q
(Q: 1260 nM, P: 631 nM)
